Tested on: Trypanosoma brucei brucei
ASSAY SUMMARY: Antimicrobial activity against Trypanosoma brucei brucei 427 bloodstream form assessed as inhibition of glucose-dependent cellular respiration
Type: functional, organism-based

{"columns": ["TEST SMILES", "READOUT UNITS", "IC50"],
 "data": [
  ["N=C(N)c1ccc(-c2ccc(-c3ccc(C(=N)N)cc3)o2)cc1", "µM", 20]
]}

Data origin, for the record: ChEMBL document CHEMBL1255240
